Source listed as PubChem BioAssay (NCI).

# growth inhibition values compiled below
- PROTOCOL DETAILS: NCI Yeast Anticancer Drug Screen. Data for the bub3 strain (AID 167)
- REPORTED CONDITIONS: S. cerevisiae bub3 mutant strain, at 50.0 µM, active compounds read high
Compounds without any hit were thinned out: in the full panel of roughly 79,000, 15% have a hit.

[
  {
    "COMPOUND": "Cc1cc(NC(=O)Oc2ccc([N+](=O)[O-])cc2)ccc1S(=O)(=O)F",
    "growth inhibition (%)": 28.6
  },
  {
    "COMPOUND": "CNC1(c2ccc(F)cc2)CCCCC1",
    "growth inhibition (%)": -13.8
  },
  {
    "COMPOUND": "Fc1cccc2cc3cccc[n+]3cc12",
    "growth inhibition (%)": 15.6
  },
  {
    "COMPOUND": "O=Cc1ccccc1O.O=Cc1ccccc1O.O=Cc1ccccc1O.[La]",
    "growth inhibition (%)": 4.8
  },
  {
    "COMPOUND": "O=C(O)c1ccc(CI)cc1",
    "growth inhibition (%)": 15.2
  },
  {
    "COMPOUND": "C=CC1CN2CCC1CC2C(O)c1ccnc2ccccc12 (stereo not drawn) (tested in a mixture with another compound)",
    "growth inhibition (%)": -1.4
  },
  {
    "COMPOUND": "Cc1nnn[n-]1.N.N.N.N.N.[Cl-].[Co+3]",
    "growth inhibition (%)": -0.15
  },
  {
    "COMPOUND": "O=C(O)C(=O)O.[Co].[NH-]CC[NH-].[NH-]CC[NH-]",
    "growth inhibition (%)": 22.4
  },
  {
    "COMPOUND": "N/C(N=P(c1ccccc1)(c1ccccc1)c1ccccc1)=N\\[N+](=O)[O-]",
    "growth inhibition (%)": 12.2
  },
  {
    "COMPOUND": "Cn1cnc([N+](=O)[O-])c1C(=O)O (tested in a mixture with another compound)",
    "growth inhibition (%)": 27.3
  },
  {
    "COMPOUND": "O=C1c2ccccc2C(=O)c2ccccc21",
    "growth inhibition (%)": 25.5
  },
  {
    "COMPOUND": "Cc1ccc(C[N+](C)(C)C)cc1",
    "growth inhibition (%)": -10.1
  },
  {
    "COMPOUND": "O=P(Nc1ccccc1)(Oc1ccccc1)N(CCCl)CCCl (stereo not drawn)",
    "growth inhibition (%)": 7.7
  },
  {
    "COMPOUND": "Nc1nc(CC(N)C(=O)O)c[se]1 (stereo not drawn)",
    "growth inhibition (%)": 21.3
  },
  {
    "COMPOUND": "CCCCC(CC)COP(=S)(S)OCC(CC)CCCC.[Sn] (stereo not drawn)",
    "growth inhibition (%)": 13.8
  },
  {
    "COMPOUND": "O=C(O)C1C2Cc3ccccc3C1c1ccccc12 (stereo not drawn)",
    "growth inhibition (%)": -13.7
  },
  {
    "COMPOUND": "O=[N+]([O-])c1cccc2ncccc12",
    "growth inhibition (%)": 17.7
  },
  {
    "COMPOUND": "CCOP(=S)(OCC)OP(=S)(OCC)OCC",
    "growth inhibition (%)": -28.1
  },
  {
    "COMPOUND": "CC1=C(C)C(=O)O[C@@H]([C@](C)(O)[C@]2(O)CC[C@@]3(O)[C@@H]4C[C@H]5O[C@]56CC=CC(=O)[C@]6(C)[C@H]4CC[C@]23C)C1",
    "growth inhibition (%)": 45.9
  },
  {
    "COMPOUND": "[CH3][Sn]([CH3])([Br])[CH2]CCBr",
    "growth inhibition (%)": 95
  },
  {
    "COMPOUND": "CCOC(=O)c1ccccc1C(=O)OCC",
    "growth inhibition (%)": -0.05
  },
  {
    "COMPOUND": "Cc1cc(NC(=O)/C=C/c2ccc([N+](=O)[O-])cc2Cl)ccc1S(=O)(=O)F",
    "growth inhibition (%)": 2.85
  },
  {
    "COMPOUND": "C#CC1(OC(C)=O)CCC2C3CCC4=CC(=O)CCC4(C)C3CCC21C (stereo not drawn)",
    "growth inhibition (%)": -8.8
  }
]
